tested on: Staphylococcus epidermidis; assay: Antibacterial activity against Staphylococcus epidermidis ATCC 12228 assessed as inhibition of bacterial growth incubated for 18 hrs by microbroth dilution assay; assay type: functional
Each record here notes measured MIC.
Numeric only. Scale: µM

Sample answers from the record:
CC[C@H](C)[C@H](NC(=O)[C@H](CCCNC(=N)N)NC(=O)[C@@H](NC(=O)[C@H](CCCNC(=N)N)NC(=O)CNC(=O)[C@H]1CCCN1C(=O)[C@H](CCCNC(=N)N)NC(=O)[C@@H](NC(=O)[C@H](CCCNC(=N)N)NC(=O)[C@@H](NC(=O)[C@@H](N)CCCNC(=N)N)[C@@H](C)CC)[C@@H](C)CC)[C@@H](C)CC)C(=O)N[C@@H](CCCNC(=N)N)C(N)=O; 8
O=C(O)c1cn(C2CC2)c2cc(N3CCNCC3)c(F)cc2c1=O; 8

Now for another entry.
Report MIC for `CC[C@H](C)[C@H](N)C(=O)N[C@@H](CCCNC(=N)N)C(=O)N[C@H](C(=O)N[C@@H](CCCNC(=N)N)C(=O)N[C@H](C(=O)N[C@@H](CCCNC(=N)N)C(=O)N1CCC[C@@H]1C(=O)NCC(=O)N[C@@H](CCCNC(=N)N)C(=O)N[C@H](C(=O)N[C@@H](CCCNC(=N)N)C(=O)N[C@H](C(=O)N[C@@H](CCCNC(=N)N)C(=O)N[C@H](C(N)=O)[C@@H](C)CC)[C@@H](C)CC)[C@@H](C)CC)[C@@H](C)CC)[C@@H](C)CC` please.
8

---

tested on: Klebsiella pneumoniae; experiment: Antibacterial activity against Klebsiella pneumoniae ATCC 700603 assessed as inhibition of bacterial growth incubated for 18 hrs by microbroth dilution assay; format: functional
Where a SMILES comes first, the peptide text is derived from it. Bridges are numbered along the chain shown (N, C = ends). [ ]: non-standard residue; d: D form. The star is where a group is joined. Ileψ(thiazoline)Cys = CC[C@H](C)[C@H](N)C1=N[C@H](C(=O)*)CS1; dOrn = NCCC[C@@H](N)C(=O)O
Each record here notes measured MIC.

NC[C@H]1O[C@H](O[C@H]2[C@H](O)[C@@H](O[C@H]3O[C@H](CO)[C@@H](O)[C@H](N)[C@H]3O)[C@H](N)C[C@@H]2N)[C@H](O)[C@@H](O)[C@@H]1O [KANAMYCIN]; 64 µM
O=C(O)c1cn(C2CC2)c2cc(N3CCNCC3)c(F)cc2c1=O [CIPROFLOXACIN]; 8 µM
CC[C@H](C)[C@H](N)C1=N[C@H](C(=O)N[C@@H](CC(C)C)C(=O)N[C@H](CCC(=O)O)C(=O)N[C@H](C(=O)N[C@H]2CCCCNC(=O)[C@H](CC(N)=O)NC(=O)[C@@H](CC(=O)O)NC(=O)[C@H](Cc3cnc[nH]3)NC(=O)[C@@H](Cc3ccccc3)NC(=O)[C@H]([C@@H](C)CC)NC(=O)[C@@H](CCCN)NC2=O)[C@@H](C)CC)CS1 [BACITRACIN] ({Ileψ(thiazoline)Cys}-L[dE]IK[dOrn]I[dF]H[dD]N; lactam 4-C); > 128 µM

Now for another entry.
Report MIC for `CC[C@H](C)[C@H](N)C(=O)N[C@@H](CCCNC(=N)N)C(=O)N[C@H](C(=O)N[C@@H](CCCNC(=N)N)C(=O)N[C@H](C(=O)N[C@@H](CCCNC(=N)N)C(=O)N1CCC[C@@H]1C(=O)NCC(=O)N[C@@H](CCCNC(=N)N)C(=O)N[C@H](C(=O)N[C@@H](CCCNC(=N)N)C(=O)N[C@H](C(=O)N[C@@H](CCCNC(=N)N)C(=O)N[C@H](C(N)=O)[C@@H](C)CC)[C@@H](C)CC)[C@@H](C)CC)[C@@H](C)CC)[C@@H](C)CC` please.
16 µM

The origin of these recorded values is ChEMBL document CHEMBL6087436.
